molecular target: Angiotensin II receptor (AT-1) type-1 (Rattus norvegicus, UniProt P29089+P25095); assay: Inhibitory concentration against binding of [125I]angiotensin II to rat liver expressing Angiotensin II receptor
OBSERVATION TYPE: IC50 (nM)

Past entries and their recorded results:
CCCc1nc(-n2c(C)ccc2C)c(CO)n1Cc1ccc(-c2ccccc2-c2nn[nH]n2)cc1
23.8
CCCCc1nc(-n2cccc2)c(C#N)n1Cc1ccc(-c2ccccc2-c2nn[nH]n2)cc1
209
CCCc1nc(-n2cccc2)c(C(=O)O)n1Cc1ccc(-c2ccccc2-c2nn[nH]n2)cc1
1.71
CCCc1nc(-n2cccc2C(=O)C(F)(F)F)c(C(=O)O)n1Cc1ccc(-c2ccccc2-c2nn[nH]n2)cc1
0.58
COC(=O)c1c(-n2c(C)ccc2C)nc(C2CC2)n1Cc1ccc(-c2ccccc2-c2nn[nH]n2)cc1
65.5
CCCc1nc(-n2ccc(C(=O)OCC)c2)c(C(=O)O)n1Cc1ccc(-c2ccccc2-c2nn[nH]n2)cc1
22
CCCc1nc(-n2ccc(C(=O)O)c2)c(C(=O)O)n1Cc1ccc(-c2ccccc2-c2nn[nH]n2)cc1
25.1
CCCCc1nc(-n2cccc2)c(C(=O)c2ccccc2)n1Cc1ccc(-c2ccccc2-c2nn[nH]n2)cc1
23.3

a. CCCc1nc(-n2cccc2C(=O)O)c(C(=O)O)n1Cc1ccc(-c2ccccc2-c2nn[nH]n2)cc1
b. CCCc1nc(-n2c(C)ccc2C)c(/C=C/C(=O)OC)n1Cc1ccc(-c2ccccc2-c2nn[nH]n2)cc1
c. Cc1ccc(C)n1-c1nc(C2CC2)n(Cc2ccc(-c3ccccc3-c3nn[nH]n3)cc2)c1C(=O)O
Challenge: Output the entries ranked by IC50 from maximum down to minimum. Form entry: labels listed in requested order.
Response given: b, a, c
(b: 21.6 nM, a: 11.2 nM, c: 2.81 nM)
